Test system: MCF7
Experiment: Cytotoxicity against Homo sapiens (human) MCF7 cells after 48 hr by sulforhodamine B assay
Format: functional
Conditions: MCF7, 48 h, read-out: pTGI (converted)
Reported TGI values follow for various molecules
Give a bare numeral; the unit µM is implied.

COc1ccc(-c2cs/c(=N\NC(=O)c3ccc(O)cc3)n2-c2ccc(OC)cc2OC)cc1 = 28.8
O=C(c1ccc(O)cc1)n1nc(-c2c(Cl)cccc2Cl)sc1=S = 32.4

Tell me TGI reported for "Cc1ccc(-c2cs/c(=N\NC(=O)c3ccc(O)cc3)n2-c2c(C)cccc2C)cc1" 95.5

###

System: HCC 2998
Experiment: Cytotoxicity against Homo sapiens (human) HCC2998 cells after 48 hr by sulforhodamine B assay
Assay type: functional
Details: HCC 2998, 48 h
Property name: LC50 (µM)
Numbers only; they are read as µM.

COc1ccc(-c2cs/c(=N\NC(=O)c3ccc(O)cc3)n2-c2ccc(OC)cc2OC)cc1 = 53.7

Attention now shifts to the item below.
Provide only the value of recorded LC50 for "O=C(N/N=c1\scc(-c2ccc(Cl)cc2)n1-c1ccc(Cl)cc1Cl)c1ccc(O)cc1" 53.7
